# target system: T1, SCRIB-3/4 (MBP fusion of the third of the four PDZ domains of SCRIB) (human, UniProt Q14160-1 997-1093)
# T1 construct: also called MBP-PDZ analyte SCRIB-3/4; source: E. coli BL21 DE3, purified (amylose column, Superdex 75 gel filtration)
# T1 sequence (looked up): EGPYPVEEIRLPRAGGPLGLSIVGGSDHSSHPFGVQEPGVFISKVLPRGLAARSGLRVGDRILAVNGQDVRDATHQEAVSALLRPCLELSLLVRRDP
# protocol summary: SPR
# assay conditions: both partners purified
Ends that are not written are not given here. * marks the point of attachment. Biotin = O=C1N[C@H]2[C@H](CS[C@H]2CCCCC(=O)*)N1
Provide the reported pKd of each item.
Give bare numbers, as −log10 of the molar value.

Some entries whose results are on file:
binder	pKd
Biotin-GSGAGKETYY (also called ATP1A1 short; source: synthetic peptide (JPT Peptide Technologies))	2.89
Biotin-SVWLRKETRV (also called CYSLTR2 long; source: synthetic peptide (JPT Peptide Technologies)) [CYSLTR2_10 (long peptide of Cysteinyl leukotriene receptor 2: the last ten residues)]	4.47
Biotin-CNTVTVETVV (also called MAS long; source: synthetic peptide (JPT Peptide Technologies)) [MAS_10 (long peptide of Proto-oncogene Mas: the last ten residues)]	4.14

Here is another binder to look at.
Input line: I have this binder here, Biotin-GSGAGSETKM (also called GLAST short; source: synthetic peptide (JPT Peptide Technologies)) [GLAST_05 (short peptide of Excitatory amino acid transporter 1: GSGAG and the last five residues)] , and I need its recorded pKd.
Output line: 3.74
